The reported measurements were obtained from PubChem BioAssay AID1259407.

# Tested on: CCRIS mutagenicity, Ames/micronucleus/aberration tests
# assay.explanation: CCRIS mutagenicity studies
# condition.details: Test System: AMES SALMONELLA TYPHIMURIUM; Strain/Indicator: TA100; Metabolic Activation: NONE; Method: PREINCUBATION
The source made the active and inactive calls. No rule for the calls is given here.

[
  {
    "smiles.notation": "O=C(Cl)c1ccc([N+](=O)[O-])cc1",
    "mutagenic call": "active; positive"
  },
  {
    "smiles.notation": "O=C1C=CC(=O)c2c(O)c(Cl)c(Cl)c(O)c21",
    "mutagenic call": "inactive; negative"
  },
  {
    "smiles.notation": "O=NSCCO",
    "mutagenic call": "active; positive"
  },
  {
    "smiles.notation": "CC(=O)Nc1ccc(S(=O)(=O)Cl)cc1",
    "mutagenic call": "inactive; negative"
  },
  {
    "smiles.notation": "CN(C)CCCN",
    "mutagenic call": "inactive; negative"
  },
  {
    "smiles.notation": "O=Cc1ccc([N+](=O)[O-])o1",
    "mutagenic call": "active; positive"
  },
  {
    "smiles.notation": "Clc1cc(Cl)c(Cl)c(Cl)c1Cl",
    "mutagenic call": "inactive; negative"
  },
  {
    "smiles.notation": "O=C1c2ccccc2C(=O)c2c(O)c(O)cc(O)c21",
    "mutagenic call": "inactive; negative"
  }
]
